target-under-test: recombinant soluble homotrimeric HA of A/northern shoveler/California/HKWF115/07 (H6) (Influenza A virus A/northern shoveler/California/HKWF115/2007(H6N1))
test-details: trimeric HA microarray, transfection supernatant set 2
experimental-parameters: remark: other sources report otherwise
The label Met is reserved for Trimeric HA Binding: RLU strictly under 30000 RLU; Not met covers values equal to or above it.

{"binder": "TCN-523 (5248_A17) (antibody, V domains shown) VH: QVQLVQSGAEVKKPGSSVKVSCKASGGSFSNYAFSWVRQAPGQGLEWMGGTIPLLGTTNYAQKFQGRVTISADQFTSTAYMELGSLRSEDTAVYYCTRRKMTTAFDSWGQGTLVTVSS VL: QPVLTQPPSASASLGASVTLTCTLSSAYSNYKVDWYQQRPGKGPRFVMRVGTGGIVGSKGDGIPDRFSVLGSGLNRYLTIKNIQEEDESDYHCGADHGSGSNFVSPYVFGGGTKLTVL", "category": "Met"}
{"binder": "TCN-522 (3212_I12) (antibody, V domains shown) VH: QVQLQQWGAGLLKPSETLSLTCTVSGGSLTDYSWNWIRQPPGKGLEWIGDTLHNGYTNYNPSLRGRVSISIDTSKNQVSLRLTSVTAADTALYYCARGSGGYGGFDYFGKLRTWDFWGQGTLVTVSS VL: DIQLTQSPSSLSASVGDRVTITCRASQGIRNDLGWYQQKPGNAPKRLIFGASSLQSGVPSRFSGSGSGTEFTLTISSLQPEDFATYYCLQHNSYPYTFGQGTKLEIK", "category": "Not met"}
{"binder": "TCN-527 (5086_C06) (antibody, V domains shown) VH: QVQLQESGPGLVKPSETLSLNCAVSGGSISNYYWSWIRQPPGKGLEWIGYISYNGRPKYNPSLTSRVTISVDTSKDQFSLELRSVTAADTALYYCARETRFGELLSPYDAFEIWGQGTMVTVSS VL: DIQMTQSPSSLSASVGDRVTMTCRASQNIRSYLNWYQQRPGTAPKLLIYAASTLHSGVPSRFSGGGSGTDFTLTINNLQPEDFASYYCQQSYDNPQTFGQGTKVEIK", "category": "Met"}
{"binder": "TCN-563 (5237_B21) (antibody, V domains shown) VH: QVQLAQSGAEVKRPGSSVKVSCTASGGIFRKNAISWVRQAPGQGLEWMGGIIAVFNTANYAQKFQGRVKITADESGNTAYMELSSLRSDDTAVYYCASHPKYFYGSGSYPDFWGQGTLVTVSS VL: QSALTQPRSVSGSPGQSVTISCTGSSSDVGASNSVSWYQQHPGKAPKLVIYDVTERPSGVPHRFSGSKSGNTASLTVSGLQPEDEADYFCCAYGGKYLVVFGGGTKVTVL", "category": "Met"}

Here is the next item to consider.
Ask | Input TCN-528 (5087_P17) (antibody, V domains shown) VH: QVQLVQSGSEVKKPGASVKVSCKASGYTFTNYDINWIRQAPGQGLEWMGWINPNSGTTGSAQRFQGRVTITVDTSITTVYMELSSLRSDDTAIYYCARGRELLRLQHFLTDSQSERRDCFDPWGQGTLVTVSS VL: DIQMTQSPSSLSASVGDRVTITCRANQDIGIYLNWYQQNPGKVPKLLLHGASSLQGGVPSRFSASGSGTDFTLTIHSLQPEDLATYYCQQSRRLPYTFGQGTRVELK ; condition: Trimeric HA Binding: RLU strictly below 30000 RLU. Does it hold?
Reply | Met
